Data origin: patent US20250223358A1

Biological target: T1, cynomolgus CD3 (cynomolgus (Macaca fascicularis), UniProt Q95LI5 22-198; Q95LI8 22-171; Q95LI7 23-181)
T1 construct: whole, on cells; composition of the 'mix' not defined; also called cynoCD3
T1 sequence (Q95LI5 22-198, chain 1 of 3): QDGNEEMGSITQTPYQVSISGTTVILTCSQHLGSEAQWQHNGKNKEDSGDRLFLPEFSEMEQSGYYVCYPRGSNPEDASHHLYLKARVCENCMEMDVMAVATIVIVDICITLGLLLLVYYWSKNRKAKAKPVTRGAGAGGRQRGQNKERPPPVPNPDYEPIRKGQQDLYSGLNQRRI
T1 sequence (Q95LI8 22-171, chain 2 of 3): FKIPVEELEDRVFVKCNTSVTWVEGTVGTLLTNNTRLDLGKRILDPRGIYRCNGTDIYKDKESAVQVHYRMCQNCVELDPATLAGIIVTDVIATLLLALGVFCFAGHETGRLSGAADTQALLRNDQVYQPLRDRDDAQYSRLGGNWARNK
T1 sequence (Q95LI7 23-181, chain 3 of 3): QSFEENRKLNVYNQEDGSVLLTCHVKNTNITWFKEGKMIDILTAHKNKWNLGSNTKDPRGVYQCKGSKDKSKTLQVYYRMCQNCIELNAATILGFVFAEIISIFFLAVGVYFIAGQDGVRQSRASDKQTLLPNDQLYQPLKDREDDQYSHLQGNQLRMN
Experiment: FACS on 293T-cynoCD3mix cells
I'd appreciate it if you could supply EC50 values for the items below.
Numeric only. Scale: nM

Reported EC50 ( ch147E11E2 (antibody, V domains shown) VH: QVQLQQPGTELVKPGTSVKLSCKASGYTFTSYWMHWVKQRPGQGLEWIGNINPSNGATNYNEKFKSKATLTVDKSSSTAYMQLSSLTSEDSAVYYCARDRSSQYYFDYWGQGTTLTVSS VL: DIVMSQSPSSLAVSAGEKVTMSCKSSQSLLNSRSRKNYLAWYQQKPGQSPKLLIYWASTRESGVPDRFTGSGSGTDFTLTISSVQAEDLAVYYCTQSYTLRTFGGGTKLEIK ) = 1.23

Reported EC50 ( hu147E2-L1H3 (antibody, V domains shown, humanized 147E11E2; also called hu14E2-L1H3) VH: EVQLVQSGAEVKKPGSSVKVSCKASGYTFTSYWMHWVRQAPGQGLEWMGNINPSNGATNYNEKFKSRVTLTVDKSTSTAYMELSSLRSEDTAVYYCARDRSSQYYFDYWGQGTTVTVSS VL: DIVMTQSPDSLAVSLGERATINCKSSQSLLNSRSRKNYLAWYQQKPGQPPKLLIYWASTRESGVPDRFSGSGSGTDFTLTISSLQAEDVAVYYCTQSYTLRTFGGGTKVEIK ) = 1.51

Reported EC50 ( hu147E2-L3H4 (antibody, V domains shown, humanized 147E11E2; also called hu14E2-L3H4) VH: EVQLVQSGAEVKKPGSSVKVSCKASGYTFTSYWMHWVRQAPGQGLEWIGNINPSNGATNYNEKFKSRATLTVDKSTSTAYMELSSLRSEDTAVYYCARDRSSQYYFDYWGQGTTVTVSS VL: DIQMTQSPSSLSASVGDRVTITCKSSQSLLNSRSRKNYLAWYQQKPGKAPKLLIYWASTRESGVPSRFSGSGSGTDFTLTISSLQPEDFATYYCTQSYTLRTFGGGTKVEIK ) = 1.29
